Target: P-gp (Homo sapiens)
Sequence (P08183 whole entry): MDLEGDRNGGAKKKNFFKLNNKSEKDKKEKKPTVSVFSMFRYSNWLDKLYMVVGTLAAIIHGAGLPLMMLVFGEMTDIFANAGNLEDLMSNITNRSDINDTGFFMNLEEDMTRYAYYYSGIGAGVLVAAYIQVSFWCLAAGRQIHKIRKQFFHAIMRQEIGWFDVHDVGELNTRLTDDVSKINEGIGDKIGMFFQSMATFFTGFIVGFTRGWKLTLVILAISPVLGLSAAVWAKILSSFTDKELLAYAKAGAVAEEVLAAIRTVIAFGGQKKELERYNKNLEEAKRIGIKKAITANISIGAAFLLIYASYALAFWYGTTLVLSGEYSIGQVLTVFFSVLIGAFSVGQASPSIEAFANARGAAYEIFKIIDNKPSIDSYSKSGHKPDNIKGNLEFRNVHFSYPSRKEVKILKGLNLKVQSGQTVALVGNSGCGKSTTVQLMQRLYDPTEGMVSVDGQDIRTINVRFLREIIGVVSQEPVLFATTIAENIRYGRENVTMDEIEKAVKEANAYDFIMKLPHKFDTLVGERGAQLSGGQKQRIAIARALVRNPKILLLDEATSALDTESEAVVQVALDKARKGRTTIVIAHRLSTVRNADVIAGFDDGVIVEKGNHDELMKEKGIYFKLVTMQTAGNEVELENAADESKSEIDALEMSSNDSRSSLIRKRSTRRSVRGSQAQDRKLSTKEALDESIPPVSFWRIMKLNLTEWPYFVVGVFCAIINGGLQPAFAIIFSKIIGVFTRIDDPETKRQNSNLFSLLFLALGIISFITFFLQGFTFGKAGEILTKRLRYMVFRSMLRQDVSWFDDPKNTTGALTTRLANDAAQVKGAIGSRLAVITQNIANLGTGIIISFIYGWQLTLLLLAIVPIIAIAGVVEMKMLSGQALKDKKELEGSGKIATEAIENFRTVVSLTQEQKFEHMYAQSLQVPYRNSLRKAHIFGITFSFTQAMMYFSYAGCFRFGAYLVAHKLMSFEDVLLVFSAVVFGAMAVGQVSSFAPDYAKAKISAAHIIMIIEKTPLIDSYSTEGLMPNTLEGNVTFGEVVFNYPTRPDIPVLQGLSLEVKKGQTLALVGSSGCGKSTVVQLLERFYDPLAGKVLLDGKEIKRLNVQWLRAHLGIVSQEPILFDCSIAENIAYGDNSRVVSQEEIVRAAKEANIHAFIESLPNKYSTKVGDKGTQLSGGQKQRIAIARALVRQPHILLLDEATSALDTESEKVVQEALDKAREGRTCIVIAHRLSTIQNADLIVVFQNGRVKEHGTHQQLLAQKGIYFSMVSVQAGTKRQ
Test: Bidirectional transport assay of Rh-123 (P-gp inhibition)
Assay type: cell-based
Settings: dog, MDCK-MDR1, 120 min
Procedure: The HBSS containing 10 μM Rh-123 and different AR components as described in the above Section 4.6.1 were prepared. Additionally, The HBSS containing 10 μM Rh-123 and 0.625 μM valspodar were prepared as the positive control. […] The apparent permeability (Papp) of each substrate across MDCK-MDR1 cell monolayers in both the basolateral to apical (B > A) and apical to basolateral (A > B) directions were calculated using the following formula: […]
The molecules listed here are annotated with their Papp (AP-BL) of rhodamine-123 in combination with the compound.
Write the value in ×10⁻⁶ cm/s as a bare number.

Example results:
molecule	reportedValue
COc1ccc(-c2oc3c(CC=C(C)C)c(O)cc(O)c3c(=O)c2O[C@@H]2O[C@@H](C)[C@H](O)[C@@H](O)[C@H]2O)cc1 [BHI, baohuoside I]	1.73
C[C@H]1CC[C@@]2(OC1)O[C@H]1C[C@H]3[C@@H]4CC[C@@H]5C[C@@H](O[C@@H]6O[C@H](CO)[C@H](O)[C@H](O)[C@H]6O[C@@H]6O[C@H](CO)[C@@H](O)[C@H](O)[C@H]6O)CC[C@]5(C)[C@H]4CC[C@]3(C)[C@H]1[C@@H]2C	1.78
O=c1c2cc(O)c(O)cc2oc2cc(O)c([C@@H]3O[C@H](CO)[C@@H](O)[C@H](O)[C@H]3O)c(O)c12	1.88

Qu. Item under review: C[C@@H](CC[C@@]1(O)O[C@H]2C[C@H]3[C@@H]4CC[C@@H]5C[C@@H](O[C@@H]6O[C@H](CO)[C@H](O)[C@H](O)[C@H]6O[C@@H]6O[C@H](CO)[C@@H](O)[C@H](O)[C@H]6O)CC[C@]5(C)[C@H]4CC[C@]3(C)[C@H]2[C@@H]1C)CO[C@@H]1O[C@H](CO)[C@@H](O)[C@H](O)[C@H]1O . Reported Papp (AP-BL) of rhodamine-123 in combination with the compound?
Ans. 1.85
